# assay context: in toluene, 308.15 K
measurement type: solubility (mole fraction)
Lab note: record just the number, no unit beside it.

Prompt line: Look up solubility (mole fraction): CC(=O)Oc1ccccc1C(=O)Nc1ncc([N+](=O)[O-])s1
Response line: 0.000258

---

# assay context: in isopropanol, 288.15 K
measurement type: solubility (mole fraction)

Prompt line: Look up solubility (mole fraction): CC(=O)Oc1ccccc1C(=O)Nc1ncc([N+](=O)[O-])s1
Response line: 0.000287

---

# assay context: in methanol, 273.15 K
measurement type: solubility (mole fraction)
Lab note: record just the number, no unit beside it.

Prompt line: Look up solubility (mole fraction): CC(=O)Oc1ccccc1C(=O)Nc1ncc([N+](=O)[O-])s1
Response line: 0.000103
